reportedConditions: fed state (high fat meal); ileal efflux over 4 h; mean ± range, two experiments
// reported ACNs in I.E. as % of input per item

Example cases with answers are listed next.
1. COc1cc(-c2[o+]c3cc(O)cc(O)c3cc2O[C@@H]2O[C@H](COC(C)=O)[C@H](O)[C@H](O)[C@H]2O)cc(OC)c1O [mal-3-(6″-Acetoyl)-galactoside] | 2.4 ± 0.9 % of input
2. COc1cc(-c2[o+]c3cc(O)cc(O)c3cc2O[C@@H]2OC[C@H](O)[C@H](O)[C@H]2O)cc(OC)c1O [mal-3-Arabinoside, malvidin-3-arabinoside] | 2.6 ± 0.4 % of input
3. COc1cc(-c2[o+]c3cc(O)cc(O)c3cc2O[C@@H]2O[C@H](CO)[C@H](O)[C@H](O)[C@H]2O)cc(OC)c1O [mal-3-Galactoside] | 2.6 ± 0.8 % of input
4. COc1cc(-c2[o+]c3cc(O)cc(O)c3cc2O[C@@H]2OC[C@H](O)[C@H](O)[C@H]2O)cc(O)c1O.[Cl-] [pt-3-Arabinoside, petunidin-3-arabinoside] | 4.5 ± 1.5 % of input

Now for a further compound.
Recorded ACNs in I.E. as % of input (compound COc1cc(-c2[o+]c3cc(O)cc(O)c3cc2O[C@@H]2O[C@H](CO)[C@@H](O)[C@H](O)[C@H]2O)cc(OC)c1O [mal-3-Glucoside, malvidin-3-glucoside] ): 3.2 ± 0.1 % of input
